Molecular target: BRDT-BD1 (Homo sapiens)
Construct: NP_001717.3 amino acid 21− 137; made in house; host or cells: E. coli NiCo21 (DE3)
Assay: AlphaScreen competition assay with biotinylated JQ1, BRDT-BD1
Assay type: binding
This listing pairs molecules with measured IC50.
valueKind: IC50 (nM)

> print(dat)
                                   molecule  signqualifier  endpointresult
1  CNC(=O)c1cc(NC(=O)c2ccc3c(c2)c(-c2ccc(N)cc2C)nn3C)ccc1C [Compound 22]              =           10700
2  CNC(=O)c1ccc(C(=O)Nc2cc(NC(=O)c3ccc4c(c3)c(-c3cc5ccccc5n3C)nn4C)ccc2C)cc1 [Compound 8]              >           10000
